The reported measurements were obtained from patent US7537764.

# OD 492 nm values compiled below
# measurement target: T1, West Nile virus strain USA99b (strain 385-99), whole virus (West Nile virus strain 385-99 (USA99b))
# T1 construct: mature
# test summary: phage ELISA on coated whole inactivated WNV
Quote the value and follow it with the unit of measurement.

See these solved cases before continuing.
SC04-299 (scFv) scFv: EVQLVETGGGVVQPGRSLRLSCAASGFTFSGYAMHWVRQAPGKGLDWVAVISYDGSEKYSADSVKGRFTISRDNSKNTLYLQMNSLRAEDTAVYYCAKESGGPIWYKYYGVDVWGQGTTVTVSSGTGGSGGTGSGTGGSTSYVLTQPPSLSAAPRQRVTISCSGSSSNIGNYGVNWYQQLPGKAPKLLIYYDDLLPSGVSDRFSGSKSGTSASLAISGLQSEDEGDYYCAAWDDTLSAWVFGGGTKLTVLG: 1.07 OD
SC04-311 (scFv) scFv: EVQLVQSGGGVVQPGRSLRLSCVASGFTFSKDAMHWVRQAPGKGLEWVAVISYDGSDKHYADSVKGRVTISRDNSRKTLYLRMDSLRAEDTALYYCARGYNSGHYFDYWGQGTLITVSSGTGGSGGTGSGTGGSTQSVLTQPPSVSAAPGQKVTISCSGTSSNIGDNYVSWYQHLPGTAPKLLIYDNNKRPSGIPDRFSGSKSGTSATLGVTGLQTGDEADYYCGTWDSSLTAVVFGGGTKLTVLG: 1.04 OD
SC04-283 (scFv) scFv: EVQLVQSGAEVKKSGESLKISCKGSGYTFNTYWIGWVRQMPGKGLEWMGIIYPGDSDTIYSPSFQGQVTISADKSISTAYLQWSSLKASDSAMYYCARLTFRRGYSGSDSFLPPGDFDYWGQGTLVTVSSGTGGSGGTGSGTGGSTDIQMTQSPSTLSASVGDRVTITCRASQSISSWLAWYQQKPGKAPNLLIYAASSLQSGVPSRFSGSGSGTDFTLTISSLQPDDSATYYCQQYNTYPLTFGGGTKVEIKR: 1.21 OD

Turning to the following binder.
Q: Item SC04-289 (scFv) scFv: QMQLVQSGAEVKKPGESLRISCKGSGYSFTSNWITWVRQMPGKGLEWMGRIDPSDSYTNYSPSFQGHVTISADKSISTAYLQWSSLKASDTAMYYCARDVVGVGASDYYYYMDVWGKGTTVTVSSGTGGSGGTGSGTGGSTEIVLTQSPGTLSLSPGETATLSCRTSQSVSSSYLGWYQQKPGQAPRLLIYGASIRATGIPARFSGSGSGTEFTLTIDSLQSEDFAVYYCQQYNNWPPITFGQGTRLEIKR : provide OD 492 nm
Ans: 0.759 OD
